For each entry below, report its melting point value.

[ask] Which measured melting point value corresponds to CCn1nc(OCCCc2ccc(OCCOC)cc2OCc2ccc(Cl)cc2Cl)cc1CCC(=O)O ?
[reply] 114 to 116 °C

[ask] Which measured melting point value corresponds to CC(C)Oc1ccc(CCCCOc2cc(CCC(=O)O)n(-c3ccccc3)n2)c(Oc2ncc(C(F)(F)F)cc2Cl)c1 ?
[reply] 75 to 77 °C

[ask] Which measured melting point value corresponds to COc1cccc(CC(=O)O)c1OCCCc1cc(OC(C)C)nn1Cc1ccc2ccccc2n1 ?
[reply] 129 to 130 °C

[ask] Which measured melting point value corresponds to COc1cccc(CC(=O)O)c1OCCCc1cc(OC(C)C)nn1Cc1c(F)cccc1Cl ?
[reply] 97 to 98 °C

[ask] Which measured melting point value corresponds to CC(C)Oc1ccc(CCCOc2cc(CCC(=O)O)n(C3CCCCC3)n2)c(Oc2ncc(C(F)(F)F)cc2Cl)c1 ?
[reply] 114 to 115 °C

[ask] Which measured melting point value corresponds to CCc1cnn(CC(=O)O)c1OCCn1cc(C(=O)NCc2ccc(C(F)(F)F)cc2)c(OC(C)C)n1 ?
[reply] 183 to 184 °C

[ask] Which measured melting point value corresponds to COCCOc1ccc(CCCOc2cc(CCC(=O)O)n(C)n2)c(OCc2ccc(Cl)cc2Cl)c1 ?
[reply] 128.5 to 129.5 °C

[ask] Which measured melting point value corresponds to CCOc1ccc(CCCOc2nn(C)cc2CC(=O)O)c(Oc2ccc(Cl)cc2Cl)n1 ?
[reply] 81 to 83 °C

[ask] Which measured melting point value corresponds to COc1cccc(CC(=O)O)c1OCCCc1ccc(OC(C)C)cc1Oc1ncc(Cl)cc1Cl ?
[reply] 92 to 93 °C

[ask] Which measured melting point value corresponds to CC(C)Cn1nc(OCCCCc2ccc(OC(C)C)cc2Oc2ncc(C(F)(F)F)cc2Cl)cc1CCC(=O)O ?
[reply] 122 to 123 °C

[ask] Which measured melting point value corresponds to CC(C)OCCOc1ccc(CCCOc2nn(C)cc2CC(=O)O)c(Oc2ncc(C(F)(F)F)cc2Cl)c1 ?
[reply] 103.5 to 104.5 °C

[ask] Which measured melting point value corresponds to CCOc1nn(Cc2ccc(Cl)cc2Cl)cc1CCCOc1nn(-c2ccccc2)cc1CCC(=O)O ?
[reply] 114 to 118 °C

[ask] Which measured melting point value corresponds to COCCOc1ccc(CCCOc2cc(CCC(=O)O)n(C)n2)c(OCc2ccc(C(F)(F)F)cc2)c1 ?
[reply] 110 to 111 °C

[ask] Which measured melting point value corresponds to CCn1nc(OCCCc2ccc(OCCOC)cc2Oc2ncc(C(F)(F)F)cc2Cl)cc1CCC(=O)O ?
[reply] 101 to 103 °C

[ask] Which measured melting point value corresponds to CCn1nc(OCCCc2ccc(OCCOC(C)C)cc2Oc2ncc(C(F)(F)F)cc2Cl)cc1CCC(=O)O ?
[reply] 130.5 to 131.5 °C

[ask] Which measured melting point value corresponds to CCn1nc(OCCCc2ccc(OC(C)C)cc2OCc2ccc(Cl)cc2Cl)cc1CCC(=O)O ?
[reply] 110 to 111 °C

[ask] Which measured melting point value corresponds to CCCOc1cc(CCCOc2nn(C)cc2CC(=O)O)n(Cc2ccc(Cl)cc2Cl)n1 ?
[reply] 77 to 81 °C

[ask] Which measured melting point value corresponds to CCCOc1cc(CCCOc2c(CC(=O)O)cccc2OC)n(Cc2ccccc2OC)n1 ?
[reply] 79 to 82 °C
